The reported measurements were obtained from the supplement of paper PMC13380429.

- Test system: Caco-2
- test-details: cell viability relative to DMSO; higher = less toxic
- measurement-context: 72 h; 10000 nM
experimental-endpoint: cell viability (%)
The reply should be a number in %, with the unit left off.

Below are worked cases with known answers.
CC(C)N(CCC(=O)c1ccc2ccccc2c1)Cc1ccccc1 = 99.5
COc1ccc2[nH]cc(C3=CCNCC3)c2c1 = 98.4
CN1CCCC(CN2c3ccccc3Sc3ccccc32)C1 (stereo unspecified) = 85.7

For this compound ( O=C(N[C@H]1CN2CCC1CC2)c1cc2cccc(Cl)c2s1 ), measured cell viability is 92.9

For this compound ( OC[C@@H](O)[C@@H](O)[C@H](O)[C@@H](O)CO ), measured cell viability is 93.6

For this compound ( Cc1c(C(=O)NC2CCCCC2)sc2nc3ccc(N)cc3n12 ), measured cell viability is 104

* * *

- Tested on: HepG2
- test-details: cell viability relative to DMSO; higher = less toxic
- measurement-context: 72 h; 100 nM
// returns not met unless cell viability is strictly below 90%, in which case met

Example results:
CCOC(N)=O = met
CN(C)CCN(C)CCc1ccc(Cl)c(Cl)c1 = not met
Cc1cc(C(=O)O)sc1C(N)C(=O)O (configuration not stated) = met
CC(=O)NCCCOc1ccc(C(=O)N2CCC(N3C(=O)CCc4ccccc43)CC2)cc1 = not met
CC1Cc2ccccc2N1NC(=O)c1ccc(Cl)c(S(N)(=O)=O)c1 (configuration not stated) [indapamide] = not met
O=C1CCc2ccc(OCCCCN3CCN(c4cccc(Cl)c4Cl)CC3)cc2N1 = not met

[in] Answer whether the molecule CN1CCN(c2ncc(-c3cc(Cl)cc(Cl)c3Cl)c(N)n2)CC1 has cell viability strictly less than 90%
[out] not met

* * *

- Test system: Vero E6
- test-details: cell viability relative to DMSO; higher = less toxic
- measurement-context: 72 h; 1000 nM
experimental-endpoint: cell viability (%)
The reply should be a number in %, with the unit left off.

Below are worked cases with known answers.
C[S+]([O-])c1ccc(-c2nc(-c3ccc(F)cc3)c(-c3ccncc3)[nH]2)cc1 (stereo not given) = 110
CCCc1nc(C(C)(C)O)c(C(=O)OCc2oc(=O)oc2C)n1Cc1ccc(-c2ccccc2-c2nnn[nH]2)cc1 = 89
CN1CCCC(CN2c3ccccc3Sc3ccccc32)C1 (stereo not given) = 97.1
C=C(c1ccc(C(=O)O)cc1)c1cc2c(cc1C)C(C)(C)CCC2(C)C = 94.3
CC(COc1ccccc1)N(CCCl)Cc1ccccc1 (stereo not given) = 97.9
N#Cc1ccc(COC[C@H]2O[C@@H](n3c(NCc4ccc(Cl)c(Cl)c4)nc4c(N)ncnc43)[C@H](O)[C@@H]2O)cc1 = 99.9
O=c1c2ccccc2nc2n1CCc1c-2[nH]c2ccccc12 = 100
CC[C@H](Nc1ncnc2[nH]cnc12)c1nc2cccc(F)c2c(=O)n1-c1ccccc1 = 87.5
NC(=O)c1cccnc1 [nicotinamide] = 104
Cc1ccccc1CN1C2=NCCN2C(=O)C2=C1CCN(Cc1ccccc1)C2 = 99.5

Short answer on Vero E6 for CCN1CCN(c2ccc(C(C)(C)NC(=O)c3cc4[nH]c5ccccc5c(=O)c4cc3F)cn2)CC1 , cell viability: 97.2

Short answer on Vero E6 for c1ccc(NCc2ccc(CNc3ccccn3)cc2)nc1 , cell viability: 101

Short answer on Vero E6 for Oc1c(Cl)cc(Cl)c2cccnc12 , cell viability: 93.5

Short answer on Vero E6 for Cc1cc(C(=O)O)sc1C(N)C(=O)O (stereo not given) , cell viability: 93.5

Short answer on Vero E6 for CC(C)(C#N)c1cc(Cn2cncn2)cc(C(C)(C)C#N)c1 , cell viability: 99.3
